assay: solvent given as SMILES; conditions: in OCC(O)CO
measured.parameter: fluorescence lifetime (ns)

[Q] Requested field: fluorescence lifetime. Item: `COc1cc(/C=C2/SC(=O)NC2=O)cc(OC)c1O`
[A] 4.92

[Q] Then `CCN(CC)c1ccc2c(C)cc(=O)oc2c1` ?
[A] 3.8

(I) CCCn1c2cccc3c2[c+]2c4c1cccc4n(CCC)c1cccc(c12)n3CCC
(II) COc1cc(/C=C2/SC(=O)NC2=O)ccc1O
[Q] Which entry has a larger number for fluorescence lifetime, I or II ? Identify your selection by its label.
[A] I
(I: 11 ns, II: 5.79 ns)

----------
assay: solvent given as SMILES; conditions: in OCCO
measured.parameter: fluorescence lifetime (ns)

[Q] Requested field: fluorescence lifetime. Item: `NNC(=O)NNN1C(=O)c2cc(S(=O)(=O)[O-])cc3c(N)c(S(=O)(=O)[O-])cc(c23)C1=O`
[A] 7.9

[Q] Then `COc1cc(/C=C2/SC(=O)NC2=O)cc(OC)c1O` ?
[A] 2.25

[Q] Then `N#C[Se]CCCCCOc1ccc2ccc(=O)oc2c1` ?
[A] 1.46

[Q] Then `CCC1=C(C)C2=C(C)c3c(C)c(CC)c(C)n3[B-](F)(F)[N+]2=C1C` ?
[A] 5.8

[Q] Then COC(=O)C(Cc1ccc2oc(-c3ccc4c(c3)c3ccccc3n4-c3ccccc3)nc2c1)NC(=O)OC(C)(C)C (stereo not given) ?
[A] 1.84

[Q] Then COC(=O)C(Cc1ccc2oc(-c3ccc(N(C)C)cc3)nc2c1)NC(=O)OC(C)(C)C (stereo not given) ?
[A] 1.13

(a) COc1cc(/C=C2/SC(=O)NC2=O)ccc1O
(b) Cc1ccc2sc3cc(CCC(=O)O)ccc3c(=O)c2c1
[Q] Which entry has a larger number for fluorescence lifetime, a or b ? Identify your selection by its label.
[A] b
(b: 4.6 ns, a: 2.52 ns)
